Below, each entry is listed alongside its reported yeast fitness.
B1: tRNA (parent)
chain: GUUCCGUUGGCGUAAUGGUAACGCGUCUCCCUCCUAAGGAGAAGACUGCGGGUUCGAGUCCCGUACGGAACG

variants of: B1; experiment: yeast fitness relative to wild type (ratio to wild type); higher = fitter; tRNA-Arg(CCU), competitive growth, 37 C, YPD
Fewer inactive variants are shown than the library holds.
Quick one: just the number, no unit, thanks!

[[record]]
construct_sequence = "GUUCCGUUGGCGUAAUGGCAACGCGUCUCCCUCCUAAGGAGAAGACUACAGGUUCGAGUCCCGUACGGAACG [U19C G48A G50A]"
numeric_value = 0.693


Turning to the following variant.
Form: variant = GUUCCGUUGGGGUAAUGGUAAGGCGUCUCCCUGCUAAGGAGAAGACUGCGGGUUCGAGUCCCGUACGGAACG [C11G C22G C33G] ; yeast fitness = 0.59
